Test system: HL-60(TB) leukemia
Test: NCI tumour cell line growth inhibition, 48 h
Collected TGI values appear next to each entry.
reported.endpoint: TGI (µM)

| molecule | reported.endpoint | unit.of.measurement | bound.sign | test.value |
| --- | --- | --- | --- | --- |
| NNC(=S)N/N=C(\c1nc2ccc(Cl)cc2[nH]c1=O)C(O)c1cccc([N+](=O)[O-])c1 (stereo not given) | TGI | µM | > | 94.3 |
| CN(C)Cc1c[nH]c2nc[nH]c(=O)c12 | TGI | µM | = | 42.4 |
| O=C1CC[C@@H]2[C@H]3CCC(=O)c4c3c(c3cccc(O)c3c4O)O[C@@]23C(=O)c2cccc(O)c2C(O)=C13 | TGI | µM | > | 100 |
| CCc1cccc(CC)c1Nc1nc(-c2ccccc2-c2ccccc2)cs1 | TGI | µM | > | 100 |
| CCOC(=O)c1sc2c(c1OC(=O)c1ccco1)c(=O)n(-c1ccccc1)c(=S)n2-c1ccccc1 | TGI | µM | = | 52.2 |
| COC(=O)c1ccc(C)cc1C1CN=NC12Cc1c(C)cccc1C2=O (stereo not given) | TGI | µM | = | 71.1 |
| C=Cc1c(-c2ccccc2)cnc2[nH]c3ccccc3c12 | TGI | µM | > | 50 |
| CCOC(=O)/C(=C\n1c(=O)sc2ccccc21)C(=O)c1ccccc1 | TGI | µM | > | 100 |
| C1=C(c2ccccc2)NC2=N[C@H]3CCCC[C@@H]3N2C1c1ccccc1 (stereo not given in full) | TGI | µM | = | 42.2 |
| CC(=O)OC1CCC2(C)C(=CCC3C2CCC2(C)C3CC3OC4(CCC(C)CN4)C(C)C32)C1 (stereo not given) | TGI | µM | > | 100 |

====

Collected TGI values appear next to each entry.
Tested on: SNB-75 CNS
Experiment: NCI tumour cell line growth inhibition, 48 h
reported.endpoint: TGI

| compound | test.value |
| --- | --- |
| COc1cc2c(/C=C3/C(=O)Nc4cc(C)c(O)cc43)c(Cl)[nH]c2cc1C | 7.6 µM |
| O=C(O)C(Cc1ccc(O)cc1)N=Cc1nc(-c2ccccc2)oc1O (configuration not stated) | > 100 µM |
| COC(=O)c1ccc(C)cc1C1CN=NC12Cc1c(C)cccc1C2=O (configuration not stated) | > 100 µM |
| O=C(c1ccsc1)c1nccc2c1cnc1ccccc12 | 88.2 µM |
| N#Cc1ccc(N=NN2CCCC2)cc1 | > 100 µM |
| CN(C)/C=N/S(=O)(=O)c1nn2c(C=O)c(-c3ccc(-c4ccccc4)cc3)nc2s1 | 18.3 µM |
| Nc1nc(N)c2ncn(Cc3ccccc3CO)c2n1 | > 100 µM |
| CCN1C(c2ccccc2)=CC(c2ccccc2)(C(Cl)(Cl)Cl)C=C1c1ccccc1 | > 100 µM |
| CC1=NN(c2ccccc2Cl)C2(C1)C(Cl)C(=O)N2c1nc2ccccc2s1 (configuration not stated) | 89.9 µM |
| NNC(=S)N/N=C(\c1nc2ccc(Cl)cc2[nH]c1=O)C(O)c1cccc([N+](=O)[O-])c1 (configuration not stated) | > 100 µM |
| COc1ccc(/C(=N/O)c2cc(F)c(F)c(OC)c2F)cc1O | > 100 µM |
| Cc1cc(N)c2cc(NC(=O)/C=C\c3ccccc3Cl)ccc2n1 | 3.21 µM |
| COc1cc(Br)c(/C=N/N=C(\N)NO)cc1OC | 65.9 µM |
| O=C1CC[C@@H]2[C@H]3CCC(=O)c4c3c(c3cccc(O)c3c4O)O[C@@]23C(=O)c2cccc(O)c2C(O)=C13 | > 100 µM |
| O=C1CSc2ccnc(=O)n21 | > 100 µM |
| CN(C)Cc1c[nH]c2nc[nH]c(=O)c12 | > 100 µM |
| Oc1ccc(Br)cc1C=Nc1ccc(Oc2ccc(N=Cc3cc(Br)ccc3O)cc2)cc1 | > 19.6 µM |
| CC(C)(C)c1ccc(OCCCCCCCN2CCNCC2)cc1 | 3.74 µM |
| COc1ccc(/C=N/n2c(Cc3ccccc3)n[nH]c2=O)c(OC)c1 | 28.6 µM |
| Cc1nsc2cc(Cl)n(C)c(=O)c12 | > 100 µM |
| CC1=CC2=C(C=O)C(=O)[C@](C)(O)[C@@H](O)C2=CO1 | > 100 µM |
| c1ccc([P+](Cc2ccc(C[P+](c3ccccc3)(c3ccccc3)c3ccccc3)s2)(c2ccccc2)c2ccccc2)cc1 | > 100 µM |

====

Collected TGI values appear next to each entry.
Test system: HOP-92 NSCLC
Test: NCI tumour cell line growth inhibition, 48 h
reported.endpoint: TGI

| compound | reported.endpoint | test.value |
| --- | --- | --- |
| C=CC(=O)N1CCN(c2nc(OC[C@@H]3CCCN3C)nc3c(F)c(-c4nc(N)cc(C)c4C(F)(F)F)c(Cl)cc23)[C@@H](C)C1 | TGI | 3.71 µM |
| CC1(C)C2CCC1(C)C(NC(=O)COCCOCC(N)=O)C2 (configuration not stated) | TGI | > 100 µM |
| COc1cccc(C2=C(c3cn(C)c4c(C)cccc34)C(=O)NC2=O)c1 | TGI | > 25 µM |
| COc1cc(Br)c(C=Nc2cccc3ccc(OS(=O)(=O)c4ccc([N+](=O)[O-])cc4)cc23)cc1OC | TGI | > 100 µM |
| CCc1n(Cc2ccc3ccccc3c2)cc[n+]1Cc1ccc2ccccc2c1 | TGI | 1.77 µM |
| Cc1ccc(S(=O)(=O)NC(=O)Nc2ncn[nH]2)cc1 | TGI | > 100 µM |
| CCN1C(c2ccccc2)=CC(c2ccccc2)(C(Cl)(Cl)Cl)C=C1c1ccccc1 | TGI | 25.8 µM |
| O=C1C=CC(=O)N1c1ccc2ccccc2c1 | TGI | 22.2 µM |
| C[C@]12CC/C(=N\OCCN3CCCC3)C=C1CCC1C2CC[C@@]2(C)C1CC[C@]2(C)O (some centres not stated) | TGI | 32.3 µM |
| CCc1n[nH]c(=O)n1N | TGI | > 100 µM |
| COc1ccc(/C=N/n2c(Cc3ccccc3)n[nH]c2=O)c(OC)c1 | TGI | > 75 µM |
| COC(=O)c1cc2c3cc(Cl)ccc3[nH]c2c2ncccc12 | TGI | > 100 µM |
| C=CCC(NCc1ccccc1)c1cn(C(=O)OCC)c2ccccc12 (configuration not stated) | TGI | 40.7 µM |
| O=C(O)C(Cc1ccc(O)cc1)N=Cc1nc(-c2ccccc2)oc1O (configuration not stated) | TGI | > 100 µM |
| COc1cc2c(/C=C3/C(=O)Nc4cc(C)c(O)cc43)c(Cl)[nH]c2cc1C | TGI | > 100 µM |
| CCOC(=O)CCC(NC(=O)c1ccc(Oc2nc3cc(N)cc(N)c3nc2-c2ccccc2)cc1)C(=O)OCC (configuration not stated) | TGI | > 100 µM |
| CCOC(=O)C1Cc2ccc(C)cc2C1=O (configuration not stated) | TGI | > 100 µM |
| COc1ccc(C2=NC(CO)[C@H](c3ccccc3)O2)cc1OC (some centres not stated) | TGI | > 100 µM |
| NC(=O)c1c(-c2ccccc2)c(-c2ccccc2)cc2c(=O)c3ccccc3[nH]c12 | TGI | 55.5 µM |
| Nc1ncnc2c1ncn2C1OC(F)(COS(N)(=O)=O)C(O)C1O (configuration not stated) | TGI | > 100 µM |
| O=[N+]([O-])c1cc2c(ccc3ccccc32)o1 | TGI | 0.774 µM |
| Oc1ccc(Br)cc1C=Nc1ccc(Oc2ccc(N=Cc3cc(Br)ccc3O)cc2)cc1 | TGI | > 19.6 µM |

====

Tested on: CAKI-1 renal
Assay: NCI tumour cell line growth inhibition, 48 h
Collected TGI values appear next to each entry.

| molecule | measurement.target | TGI |
| --- | --- | --- |
| COC(=O)N1C=CC2=C(C)C3Nc4ccccc4C3C(C)=C2C1 (configuration not stated) | CAKI-1 renal | > 100 µM |
| O=C(O)c1cc(-c2ccc3cc(O)c(O)cc3c2)ccc1O | CAKI-1 renal | > 12.5 µM |
| COc1ccccc1OC/C(N=Cc1cccnc1)=N/NC(=O)c1ccncc1 | CAKI-1 renal | > 100 µM |
| CC1(C)C2CCC1(C)C(NC(=O)COCCOCC(N)=O)C2 (configuration not stated) | CAKI-1 renal | > 100 µM |
| CS(C)(=O)=Nn1c(=O)n2n(c1=O)[C@H]1CC[C@@H]2C1 | CAKI-1 renal | > 100 µM |
| Cc1ccnn1CCc1ccc(Cl)cc1Cl | CAKI-1 renal | > 100 µM |
| Fc1nc(-c2c3ccccc3c3sc4ccccc4n23)nc(N2CCOCCOCCOCCOCC2)n1 | CAKI-1 renal | > 100 µM |
| Cc1cc(O)c(C(O)c2ccccn2)cc1O (configuration not stated) | CAKI-1 renal | 24.2 µM |
| CN(C)/C=N/S(=O)(=O)c1nn2c(C=O)c(-c3ccc(-c4ccccc4)cc3)nc2s1 | CAKI-1 renal | 2.88 µM |
| COc1cc(C(C)c2cc3c(cc2OCCCCCOc2cc4c(cc2C(C)c2cc(OC)c(OC)c(OC)c2)OCO4)OCO3)cc(OC)c1OC (configuration not stated) | CAKI-1 renal | > 100 µM |
| COc1ccc(C(=O)c2no[n+]([O-])c2C(=O)c2ccc(OC)cc2)cc1 | CAKI-1 renal | 4 µM |
| Cc1nc2sc(C(=O)Nc3cccc4c3OCCO4)c(N)c2cc1C(C)O (configuration not stated) | CAKI-1 renal | > 100 µM |
| CCOC1OC(CO[Si](C)(C)C(C)(C)C)C(O)CC1n1ccc(=O)[nH]c1=O (configuration not stated) | CAKI-1 renal | > 100 µM |
| O=C(N/N=C/c1cc(Cl)cc(Cl)c1[O-])c1ccccc1O.O=C(N/N=C/c1cc(Cl)cc(Cl)c1[O-])c1ccccc1O.[Mn+2] | CAKI-1 renal | 4.33 µM |
| CC1=C(C(=O)Nc2cc(F)c(F)cc2F)C(c2ccc(N(C)C)cc2)C(C(=O)Nc2cc(F)c(F)cc2F)=C(C)N1 | CAKI-1 renal | > 67.7 µM |
| COc1cc(Br)c(C=Nc2cccc3ccc(OS(=O)(=O)c4ccc([N+](=O)[O-])cc4)cc23)cc1OC | CAKI-1 renal | > 100 µM |
| O=C(O)C(C1NCCS1)N1C(=O)c2ccccc2C1=O (configuration not stated) | CAKI-1 renal | > 100 µM |
